- runDescription: Half life in Sprague-Dawley rat at 10 umol/kg, po
- Assay type: ADME, organism-based
- appliedConditions: in vivo
assayMetric: half-life
In your response, put the unit directly after the numeric value.

Q: Recorded half-life for Cc1onc(-c2c(Cl)cccc2Cl)c1CC(=O)NCc1ccc(OCC(F)(F)F)nc1 , please?
A: 3.8 h

* * *

pIC50: −log10 of the molar value.
These molecules were tested on Voltage-gated inwardly rectifying potassium channel KCNH2 (Homo sapiens, UniProt Q12809); pIC50 is the recorded read-out.
Sequence (Q12809 whole entry): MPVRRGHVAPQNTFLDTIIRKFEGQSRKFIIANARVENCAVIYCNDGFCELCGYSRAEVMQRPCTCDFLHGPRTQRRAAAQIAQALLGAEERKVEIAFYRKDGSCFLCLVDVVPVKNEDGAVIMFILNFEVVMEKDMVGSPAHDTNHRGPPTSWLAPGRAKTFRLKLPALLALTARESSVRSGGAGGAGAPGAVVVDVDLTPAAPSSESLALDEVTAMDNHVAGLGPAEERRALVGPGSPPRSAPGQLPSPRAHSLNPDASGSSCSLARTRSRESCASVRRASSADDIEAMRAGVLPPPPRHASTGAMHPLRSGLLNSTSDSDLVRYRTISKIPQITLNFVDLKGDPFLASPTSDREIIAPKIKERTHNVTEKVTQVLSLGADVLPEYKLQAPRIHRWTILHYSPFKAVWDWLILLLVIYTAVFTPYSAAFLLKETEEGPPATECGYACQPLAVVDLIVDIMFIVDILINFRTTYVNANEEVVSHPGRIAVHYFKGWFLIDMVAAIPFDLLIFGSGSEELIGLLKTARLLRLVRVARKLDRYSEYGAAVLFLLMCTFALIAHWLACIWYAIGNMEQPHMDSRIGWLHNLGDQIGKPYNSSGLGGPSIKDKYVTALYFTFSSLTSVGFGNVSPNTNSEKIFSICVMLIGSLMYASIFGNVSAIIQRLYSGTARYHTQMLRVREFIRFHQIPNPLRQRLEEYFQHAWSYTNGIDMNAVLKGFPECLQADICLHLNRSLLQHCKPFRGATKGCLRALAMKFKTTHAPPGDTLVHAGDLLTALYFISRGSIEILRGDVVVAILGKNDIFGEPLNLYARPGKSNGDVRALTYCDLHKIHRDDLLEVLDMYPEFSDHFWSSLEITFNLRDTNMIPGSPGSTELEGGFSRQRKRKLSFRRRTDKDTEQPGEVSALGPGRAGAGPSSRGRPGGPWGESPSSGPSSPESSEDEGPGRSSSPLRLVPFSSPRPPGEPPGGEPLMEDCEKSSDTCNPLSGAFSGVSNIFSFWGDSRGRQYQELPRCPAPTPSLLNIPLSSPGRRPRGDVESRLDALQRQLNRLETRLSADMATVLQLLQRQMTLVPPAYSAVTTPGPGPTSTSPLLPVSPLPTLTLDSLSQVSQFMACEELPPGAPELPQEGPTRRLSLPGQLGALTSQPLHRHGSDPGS

>  <chemicalString>
Cc1onc(-c2c(Cl)cccc2Cl)c1NC(=O)OCc1c(F)cccc1Cl

>  <pIC50>
< 4.58

$$$$

Now, please, on to the next molecule.
Q: pIC50 lookup needed for Cc1onc(-c2c(Cl)cccc2Cl)c1CC(=O)NCc1ccc(OCC(F)(F)F)nc1 , thanks.
A: < 4.58

* * *

- testedOn: Sodium channel protein type 9 subunit alpha (Homo sapiens, UniProt Q15858)
- Sequence (Q15858 whole entry): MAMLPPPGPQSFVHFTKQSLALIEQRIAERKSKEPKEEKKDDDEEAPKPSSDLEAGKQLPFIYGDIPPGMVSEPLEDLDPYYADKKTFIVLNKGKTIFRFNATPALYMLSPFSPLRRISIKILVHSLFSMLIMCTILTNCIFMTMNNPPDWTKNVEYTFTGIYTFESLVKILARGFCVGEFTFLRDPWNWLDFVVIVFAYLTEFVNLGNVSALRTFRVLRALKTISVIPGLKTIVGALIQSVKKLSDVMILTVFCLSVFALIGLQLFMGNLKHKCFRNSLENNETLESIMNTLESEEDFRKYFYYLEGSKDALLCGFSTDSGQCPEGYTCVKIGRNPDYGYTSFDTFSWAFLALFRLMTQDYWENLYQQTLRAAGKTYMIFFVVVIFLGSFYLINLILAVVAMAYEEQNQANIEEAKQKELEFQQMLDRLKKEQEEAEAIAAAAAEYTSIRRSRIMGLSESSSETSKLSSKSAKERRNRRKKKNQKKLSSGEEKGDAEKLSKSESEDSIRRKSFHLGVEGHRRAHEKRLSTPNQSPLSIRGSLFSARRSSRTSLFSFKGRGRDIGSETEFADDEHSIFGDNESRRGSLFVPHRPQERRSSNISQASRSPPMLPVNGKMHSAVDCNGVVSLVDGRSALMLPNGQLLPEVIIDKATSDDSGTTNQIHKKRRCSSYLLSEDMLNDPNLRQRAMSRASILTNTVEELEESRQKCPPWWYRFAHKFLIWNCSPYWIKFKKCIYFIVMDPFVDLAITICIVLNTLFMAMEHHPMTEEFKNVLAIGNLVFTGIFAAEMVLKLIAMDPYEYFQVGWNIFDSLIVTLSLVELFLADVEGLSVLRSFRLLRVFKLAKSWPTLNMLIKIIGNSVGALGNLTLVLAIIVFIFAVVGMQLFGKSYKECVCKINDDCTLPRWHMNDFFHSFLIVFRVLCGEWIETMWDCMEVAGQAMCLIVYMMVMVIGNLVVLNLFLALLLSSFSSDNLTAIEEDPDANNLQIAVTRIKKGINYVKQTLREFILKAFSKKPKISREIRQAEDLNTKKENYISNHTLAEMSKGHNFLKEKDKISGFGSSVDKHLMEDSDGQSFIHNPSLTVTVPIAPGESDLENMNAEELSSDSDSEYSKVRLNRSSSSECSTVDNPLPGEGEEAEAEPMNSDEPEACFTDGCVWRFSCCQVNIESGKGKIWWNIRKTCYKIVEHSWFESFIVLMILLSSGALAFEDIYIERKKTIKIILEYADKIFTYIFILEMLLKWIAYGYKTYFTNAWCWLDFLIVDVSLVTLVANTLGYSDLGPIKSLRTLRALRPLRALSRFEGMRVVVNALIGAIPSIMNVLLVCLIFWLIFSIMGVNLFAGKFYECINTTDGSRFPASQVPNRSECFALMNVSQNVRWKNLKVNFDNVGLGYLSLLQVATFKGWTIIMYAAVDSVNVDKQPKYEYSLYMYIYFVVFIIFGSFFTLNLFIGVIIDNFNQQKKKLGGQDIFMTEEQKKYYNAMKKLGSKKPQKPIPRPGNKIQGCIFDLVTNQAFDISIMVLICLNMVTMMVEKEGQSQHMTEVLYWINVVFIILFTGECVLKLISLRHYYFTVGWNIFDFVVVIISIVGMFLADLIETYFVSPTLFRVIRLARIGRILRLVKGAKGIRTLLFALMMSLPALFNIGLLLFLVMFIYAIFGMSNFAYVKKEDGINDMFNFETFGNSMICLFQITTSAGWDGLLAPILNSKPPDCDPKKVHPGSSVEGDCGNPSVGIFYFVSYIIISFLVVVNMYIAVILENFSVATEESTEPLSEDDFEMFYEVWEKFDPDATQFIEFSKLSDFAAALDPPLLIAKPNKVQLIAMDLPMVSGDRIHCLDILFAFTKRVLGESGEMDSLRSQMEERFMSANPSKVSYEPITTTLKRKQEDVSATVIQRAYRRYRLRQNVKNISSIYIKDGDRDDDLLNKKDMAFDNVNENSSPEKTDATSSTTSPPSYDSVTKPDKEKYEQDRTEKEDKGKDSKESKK
- runDescription: Inhibition of Nav1.7 by cell based whole-cell voltage clamp electrophysiology assay
assayMetric: pIC50
pIC50 here: minus log base 10 of the concentration, concentration in moles per litre.

>  <chemicalString>
Cc1cccc(C)c1-c1noc(C)c1CC(=O)NCc1ccc(OCC(F)(F)F)nc1

>  <assayMetric>
pIC50

>  <observedValue>
5.91

$$$$
>  <chemicalString>
Cc1onc(-c2c(Cl)cccc2Cl)c1NC(=O)OCc1ccc(OC(C)C)nc1

>  <assayMetric>
pIC50

>  <observedValue>
7.64

$$$$
>  <chemicalString>
Cc1onc(-c2c(Cl)cccc2Cl)c1CC(=O)NCc1ccc(OCC(F)(F)F)nc1

>  <assayMetric>
pIC50

>  <observedValue>
6.75

$$$$
>  <chemicalString>
Cc1cccc(C)c1-c1noc(C)c1N(C)C(=O)NCc1ccc(OC2CCOCC2)nc1

>  <assayMetric>
pIC50

>  <observedValue>
5.35

$$$$
>  <chemicalString>
Cc1cccc(C)c1-c1noc(C)c1NC(=O)NCc1ccc(-n2cccn2)cc1

>  <assayMetric>
pIC50

>  <observedValue>
5.93

$$$$

Q: Given the compound Cc1onc(-c2c(Cl)cccc2Cl)c1CC(=O)NCc1ccc(OC(C)C)nc1 , what is its reported pIC50?
A: 6.90

* * *

pIC50: recorded values
- testedOn: Sodium channel protein type 5 subunit alpha (Homo sapiens, UniProt Q14524)
- Sequence (Q14524 whole entry): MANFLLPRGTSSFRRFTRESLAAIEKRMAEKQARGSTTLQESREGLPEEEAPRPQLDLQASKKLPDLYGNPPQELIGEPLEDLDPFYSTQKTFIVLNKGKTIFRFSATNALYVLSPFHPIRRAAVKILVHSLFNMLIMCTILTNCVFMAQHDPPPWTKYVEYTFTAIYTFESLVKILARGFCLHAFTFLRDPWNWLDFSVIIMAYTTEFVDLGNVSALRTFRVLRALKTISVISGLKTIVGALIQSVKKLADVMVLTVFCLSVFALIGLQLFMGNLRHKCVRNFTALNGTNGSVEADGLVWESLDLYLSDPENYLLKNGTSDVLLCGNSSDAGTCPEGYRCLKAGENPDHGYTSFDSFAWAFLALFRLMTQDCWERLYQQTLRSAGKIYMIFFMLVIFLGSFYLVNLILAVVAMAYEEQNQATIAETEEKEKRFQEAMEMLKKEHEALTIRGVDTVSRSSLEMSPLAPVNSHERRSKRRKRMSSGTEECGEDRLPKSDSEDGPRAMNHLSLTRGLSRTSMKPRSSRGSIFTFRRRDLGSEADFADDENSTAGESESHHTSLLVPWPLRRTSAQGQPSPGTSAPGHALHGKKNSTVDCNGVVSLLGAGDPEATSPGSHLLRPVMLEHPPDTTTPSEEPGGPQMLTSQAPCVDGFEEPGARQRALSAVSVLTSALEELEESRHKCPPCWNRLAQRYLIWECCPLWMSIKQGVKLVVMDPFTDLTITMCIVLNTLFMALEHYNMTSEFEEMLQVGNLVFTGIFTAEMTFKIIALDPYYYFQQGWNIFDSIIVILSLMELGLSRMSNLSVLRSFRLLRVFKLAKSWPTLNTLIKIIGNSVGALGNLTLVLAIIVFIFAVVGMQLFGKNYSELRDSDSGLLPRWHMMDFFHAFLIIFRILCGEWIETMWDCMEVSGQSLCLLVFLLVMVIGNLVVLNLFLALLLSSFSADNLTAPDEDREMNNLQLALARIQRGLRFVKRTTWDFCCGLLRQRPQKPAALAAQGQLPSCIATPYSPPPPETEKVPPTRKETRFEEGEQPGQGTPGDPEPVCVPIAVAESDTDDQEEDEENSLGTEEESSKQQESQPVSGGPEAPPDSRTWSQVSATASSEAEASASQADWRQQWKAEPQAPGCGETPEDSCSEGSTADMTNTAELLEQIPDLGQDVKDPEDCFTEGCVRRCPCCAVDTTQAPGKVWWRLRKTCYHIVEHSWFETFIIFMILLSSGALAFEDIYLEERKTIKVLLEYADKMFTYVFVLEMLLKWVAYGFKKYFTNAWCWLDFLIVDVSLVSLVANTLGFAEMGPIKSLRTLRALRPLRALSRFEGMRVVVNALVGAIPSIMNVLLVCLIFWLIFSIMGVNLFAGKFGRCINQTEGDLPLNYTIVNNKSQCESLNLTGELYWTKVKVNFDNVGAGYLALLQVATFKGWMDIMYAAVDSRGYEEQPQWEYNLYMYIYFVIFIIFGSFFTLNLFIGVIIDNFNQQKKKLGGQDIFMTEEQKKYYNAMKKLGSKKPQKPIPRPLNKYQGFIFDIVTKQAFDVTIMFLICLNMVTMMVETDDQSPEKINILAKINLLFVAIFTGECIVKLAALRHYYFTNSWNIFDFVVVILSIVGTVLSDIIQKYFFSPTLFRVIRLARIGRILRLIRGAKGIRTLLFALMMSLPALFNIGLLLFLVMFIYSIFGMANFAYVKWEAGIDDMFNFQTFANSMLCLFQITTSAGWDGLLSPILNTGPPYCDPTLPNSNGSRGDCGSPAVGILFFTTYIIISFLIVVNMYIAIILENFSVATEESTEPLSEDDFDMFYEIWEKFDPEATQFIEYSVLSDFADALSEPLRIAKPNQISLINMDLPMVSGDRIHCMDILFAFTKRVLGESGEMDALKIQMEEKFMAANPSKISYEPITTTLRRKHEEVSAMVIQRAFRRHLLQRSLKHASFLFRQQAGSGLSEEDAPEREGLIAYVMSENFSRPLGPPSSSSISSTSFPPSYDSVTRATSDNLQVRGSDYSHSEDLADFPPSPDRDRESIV
- runDescription: Inhibition of Nav1.5 by cell based whole-cell voltage clamp electrophysiology assay
pIC50: −log10 of the molar value.

// worked examples, pIC50 included
>  <chemicalString>
Cc1onc(-c2c(Cl)cccc2Cl)c1CC(=O)NCc1ccc(-n2cccn2)cc1

>  <testedOn>
Sodium channel protein type 5 subunit alpha (Homo sapiens, UniProt Q14524)

>  <observedValue>
< 4.48

$$$$
>  <chemicalString>
Cc1onc(-c2c(Cl)cccc2Cl)c1CC(=O)NCc1ccc(OCC(F)(F)F)nc1

>  <testedOn>
Sodium channel protein type 5 subunit alpha (Homo sapiens, UniProt Q14524)

>  <observedValue>
< 4.48

$$$$
>  <chemicalString>
Cc1onc(-c2c(Cl)cccc2Cl)c1N(C)C(=O)OCc1c(F)cccc1Cl

>  <testedOn>
Sodium channel protein type 5 subunit alpha (Homo sapiens, UniProt Q14524)

>  <observedValue>
< 4.48

$$$$
>  <chemicalString>
Cc1cccc(C)c1-c1noc(C)c1NC(=O)NCc1ccc(-n2cccn2)cc1

>  <testedOn>
Sodium channel protein type 5 subunit alpha (Homo sapiens, UniProt Q14524)

>  <observedValue>
< 4.48

$$$$
>  <chemicalString>
Cc1cccc(C)c1-c1noc(C)c1CC(=O)NCc1ccc(OCC(F)(F)F)nc1

>  <testedOn>
Sodium channel protein type 5 subunit alpha (Homo sapiens, UniProt Q14524)

>  <observedValue>
< 4.48

$$$$
>  <chemicalString>
Cc1cccc(C)c1-c1noc(C)c1N(C)C(=O)NCc1ccc(OC2CCOCC2)nc1

>  <testedOn>
Sodium channel protein type 5 subunit alpha (Homo sapiens, UniProt Q14524)

>  <observedValue>
< 4.48

$$$$
>  <chemicalString>
Cc1onc(-c2c(F)cccc2Cl)c1NC(=O)OCc1c(F)cccc1Cl

>  <testedOn>
Sodium channel protein type 5 subunit alpha (Homo sapiens, UniProt Q14524)

>  <observedValue>
< 4.80

$$$$
>  <chemicalString>
COCc1onc(-c2c(Cl)cccc2Cl)c1NC(=O)OCc1ccccc1Cl

>  <testedOn>
Sodium channel protein type 5 subunit alpha (Homo sapiens, UniProt Q14524)

>  <observedValue>
< 4.55

$$$$

Q: Give pIC50 (Sodium channel protein type 5 subunit alpha (Homo sapiens, UniProt Q14524)) of the following molecule: Cc1onc(-c2c(Cl)cccc2Cl)c1NC(=O)NCc1ccc(-n2cccn2)cc1
A: < 4.48

Q: // query: Cc1cccc(C)c1-c1noc(C)c1NC(=O)NCc1c(F)cccc1Cl
A: < 4.98
